Just for reference, patent US5389645A is where these values come from.

Quick note: these are pIC50 numbers for system: μ opioid receptors (Rattus norvegicus, UniProt P33535)
Sequence (P33535 whole entry): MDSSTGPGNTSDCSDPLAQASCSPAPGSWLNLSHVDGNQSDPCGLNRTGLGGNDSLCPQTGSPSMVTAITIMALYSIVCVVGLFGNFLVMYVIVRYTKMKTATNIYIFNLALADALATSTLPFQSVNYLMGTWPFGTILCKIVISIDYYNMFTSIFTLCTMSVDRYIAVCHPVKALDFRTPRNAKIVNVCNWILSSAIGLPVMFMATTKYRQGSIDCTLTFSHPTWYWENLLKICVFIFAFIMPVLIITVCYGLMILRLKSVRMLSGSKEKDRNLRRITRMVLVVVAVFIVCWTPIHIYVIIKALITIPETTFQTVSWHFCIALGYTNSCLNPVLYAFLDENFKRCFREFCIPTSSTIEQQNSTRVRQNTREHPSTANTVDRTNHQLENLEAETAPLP
pIC50: −log10 of the molar value. Counter-ions that a name gives are not always drawn.

| compound | qual | pIC50 |
| --- | --- | --- |
| Cc1cc(O)cc(C)c1C[C@H](N)C(=O)NC(C)(C)CNC(=O)OCc1ccccc1 [Example 3, monohydrochloride] | = | 7.21 |
| Cc1cc(O)cc(C)c1C[C@H](N)C(=O)NC(C)(C)CNC(=O)c1cnc2ccccc2c1 [Example 8, hydrochloride] | > | 8.00 |
| Cc1cc(O)cc(C)c1C[C@H](N)C(=O)NCC(C)(C)NC(=O)NCc1ccccc1 [Example 11, hydrochloride] | = | 7.23 |
| Cc1cc(O)cc(C)c1C[C@H](N)C(=O)NCC(C)(C)NC(=O)CCc1ccccc1 [Example 14, hydrochloride] | = | 7.58 |
| Cc1cc(O)cc(C)c1C[C@H](N)C(=O)NC(C)(C)CNC(=O)CCc1ccccc1 [Example 13, hydrochloride] | > | 8.00 |
| Cc1cc(O)cc(C)c1C[C@H](N)C(=O)NC(C)(C)CNC(=O)c1ccc2ccccc2n1 [Example 6, hydrochloride] | = | 8.89 |
| Cc1cc(O)cc(C)c1C[C@H](N)C(=O)N1CCN(Cc2ccccc2)CC1 [Example 15, dihydrochloride] | = | 8.35 |
| Cc1cc(O)cc(C)c1C[C@H](N)C(=O)NC(C)(C)CNC(=O)C#Cc1ccccc1 [Example 18, monohydrochloride] | > | 8.00 |
| Cc1cc(O)cc(C)c1C[C@H](N)C(=O)NC(C)(C)CNC(=O)NCc1ccccc1 [Example 10, hydrochloride] | > | 8.00 |
